Values compiled from the supplement of paper PMC11061612.

System: CAL-33 (Oral Cavity Carcinoma)
measurement.description: Bliss excess, mean over the matrix (fraction); higher = more synergy
Readings of Bliss excess for the listed compounds
value.type: Bliss excess

>>> result_number("Cn1cnc2c(F)c(Nc3ccc(Br)cc3Cl)c(C(=O)NOCCO)cc21 [Selumetinib] + CC(C)n1c(=O)n(C)c2cnc3cc(F)c(-c4ccc(OCCCN5CCCCC5)nc4)cc3c21 [AZD1390] (first compound max 10 µM, 7x7, partner max 0.3 µM)")
0.0649
>>> result_number("Cc1cc2ncnn2cc1Nc1ncc2c(n1)n(C1CCOCC1)c(=O)n2C [AZD7648] + O=C(c1cc(Cc2n[nH]c(=O)c3ccccc23)ccc1F)N1CCN(C(=O)C2CC2)CC1 [Olaparib] (first compound max 10 µM, 7x7, partner max 10 µM)")
-0.0237
>>> result_number("CN(CCO)CC[C@H](CSc1ccccc1)Nc1ccc(S(=O)(=O)NC(=O)c2ccc(N3CCC([C@@H](O)c4ccccc4-c4ccc(Cl)cc4)CC3)cc2)cc1S(=O)(=O)C(F)(F)F [AZD4320] + C[C@@H]1COCCN1C2=NC(=NC(=C2)C3(CC3)[S@](=N)(=O)C)C4=C5C=CNC5=NC=C4 [AZD6738] (first compound max 1 µM, 7x7, partner max 10 µM)")
0.0019

---

Test system: KMRC-20 (Kidney Carcinoma)
measurement.description: Bliss excess, mean over the matrix (fraction); higher = more synergy
Decide by Bliss excess: equal to or exceeding -0.04 means YES, less means NO.

>>> group_label("COc1nnc2ccc(N3CCC(c4ccc(OCCN5CCN(C)C(=O)[C@H]5C)cc4)CC3)nn12 [AZD5153] + C[C@@H]1COCCN1C2=NC(=NC(=C2)C3(CC3)[S@](=N)(=O)C)C4=C5C=CNC5=NC=C4 [AZD6738] (first compound max 1 µM, 7x7, partner max 10 µM)")
"YES"
>>> group_label("C=CCn1c(=O)c2cnc(Nc3ccc(N4CCN(C)CC4)cc3)nc2n1-c1cccc(C(C)(C)O)n1 [AZD1775] + O=C(c1cc(Cc2n[nH]c(=O)c3ccccc23)ccc1F)N1CCN(C(=O)C2CC2)CC1 [Olaparib] (first compound max 1 µM, partner max 10 µM)")
"NO"
>>> group_label("CC1(C)CCC(CN2CCN(c3ccc(C(=O)NS(=O)(=O)c4ccc(NCC5CCOCC5)c([N+](=O)[O-])c4)c(Oc4cnc5[nH]ccc5c4)c3)CC2)=C(c2ccc(Cl)cc2)C1 [Venetoclax] + C=CCn1c(=O)c2cnc(Nc3ccc(N4CCN(C)CC4)cc3)nc2n1-c1cccc(C(C)(C)O)n1 [AZD1775] (first compound max 1 µM, partner max 1 µM)")
"NO"
>>> group_label("Cc1c2c(nn1C)CSCc1cc(n(C)n1)CSc1cc(c3ccccc3c1)OCCCc1c(C(=O)O)n(C)c3c-2c(Cl)ccc13 [AZD5991] + CCN(CCO)CCCOc1ccc2c(Nc3cc(CC(=O)Nc4cccc(F)c4)[nH]n3)ncnc2c1 [AZD2811] (first compound max 1 µM, 7x7, partner max 1 µM)")
"YES"

---

Readings of combination Emax for the listed compounds
System: WSU-NHL (B-Cell Non-Hodgkin's Lymphoma)
measurement.description: combination Emax (second highest fraction inhibited in the dose matrix, 72 h); higher = more inhibition; extreme values may be limits of the assay
value.type: combination Emax

>>> result_number("Cn1cnc2c(F)c(Nc3ccc(Br)cc3Cl)c(C(=O)NOCCO)cc21 [Selumetinib] + CCN(CCO)CCCOc1ccc2c(Nc3cc(CC(=O)Nc4cccc(F)c4)[nH]n3)ncnc2c1 [AZD2811] (first compound max 10 µM, 7x7, partner max 1 µM)")
0.642
>>> result_number("NC1(C(=O)N[C@@H](CCO)c2ccc(Cl)cc2)CCN(c2ncnc3[nH]ccc23)CC1 [Capivasertib] + CC(=O)c1c(C)c2cnc(Nc3ccc(N4CCNCC4)cn3)nc2n(C2CCCC2)c1=O [Palbociclib] (first compound max 10 µM, 7x7, partner max 10 µM)")
0.899
>>> result_number("COc1nnc2ccc(N3CCC(c4ccc(OCCN5CCN(C)C(=O)[C@H]5C)cc4)CC3)nn12 [AZD5153] + CC1(C)CCC(CN2CCN(c3ccc(C(=O)NS(=O)(=O)c4ccc(NCC5CCOCC5)c([N+](=O)[O-])c4)c(Oc4cnc5[nH]ccc5c4)c3)CC2)=C(c2ccc(Cl)cc2)C1 [Venetoclax] (first compound max 1 µM, 7x7, partner max 1 µM)")
0.978
